Tested on: NCI-H226 lung
Test summary: NCI tumour cell line growth inhibition, 48 h
Experimental readout: TGI (µM)

| Molecule | Experimental readout | Lt gt eq | Value observed |
| --- | --- | --- | --- |
| O=C1C=C(NCCc2cc(Br)c(O)c(Br)c2)C(=O)c2ncccc21 | TGI | = | 3.72 |
| Cc1ccc(Cl)c(NC(=O)C(=O)C(C(=O)c2ccncc2)C2OC(=O)c3ccccc32)c1 (stereo not given) | TGI | > | 100 |
| CN(C)c1ccc(/C=C(\NC(=O)c2ccccc2)C(=O)NC(CCC(=O)O)C(=O)O)cc1 (stereo not given) | TGI | > | 100 |
| CN(/N=C/C=N/N(C)C1=NCCCCN1)C1=NCCCCN1 | TGI | > | 100 |
| COC(=O)C1=C(C(=O)OC)C23C=C(C)C1C2=C(C)C1(CC1)[C@@](C)(O)C3=O (stereo not given in full) | TGI | = | 3.07 |

----------
The following compounds are listed with their measured TGI values.
Test system: UACC-257 melanoma
Test summary: NCI tumour cell line growth inhibition, 48 h

| Compound | Measured target | TGI |
| --- | --- | --- |
| O=c1cnn2c(n1)sc1ccc3ccccc3c12 | UACC-257 melanoma | > 100 µM |
| CCOC(=O)CCC(NC(=O)c1ccc(OCc2nc3ccccc3n3cccc23)cc1)C(=O)OCC (stereo unspecified) | UACC-257 melanoma | > 100 µM |
| O=C(NC1=NC2C=CC([N+](=O)[O-])=CC2S1)C(=O)Nn1c(=S)[nH]c2ccccc2c1=O (stereo unspecified) | UACC-257 melanoma | > 100 µM |
| C=C1C(=O)O[C@H]2[C@H]1CC/C(COC(=O)NCc1c[nH]c3ccc(Cl)cc13)=C\CC[C@@]1(C)O[C@@H]21 | UACC-257 melanoma | 3.11 µM |
| NCc1nnn(Cc2ccccc2)c1N | UACC-257 melanoma | > 100 µM |
| COC(=O)CCn1cnc2c(SC)ncnc21 | UACC-257 melanoma | > 100 µM |

----------
Tested on: SF-295 CNS
Test summary: NCI tumour cell line growth inhibition, 48 h
Where a SMILES comes first, the peptide text is derived from it. [ ]: non-standard residue; d: D form. The star is where a group is joined. Octanoyl = CCCCCCCC(=O)*; Aib = CC(C)(N)C(=O)O; tBu = CC(C)(C)*

| Compound | Measured target | Lt gt eq | TGI (µM) |
| --- | --- | --- | --- |
| COc1ccc(C(c2c(O)c3ccccc3n(C)c2=O)c2c(O)c3ccccc3n(C)c2=O)cc1 | SF-295 CNS | > | 100 |
| CC(C)(C)C(=O)C(C(c1ccccc1)N1CCOCC1)N1CCOCC1 (stereo unspecified) | SF-295 CNS | > | 100 |
| CCOC(=O)CCC(NC(=O)c1ccc(Nc2nc3ccccc3nc2-c2cccs2)cc1)C(=O)OCC (stereo unspecified) | SF-295 CNS | > | 100 |
| CC(C)[C@](O)(C(=O)OCC1CC[N+]2([O-])CC[C@@H](O)C12)[C@H](C)O (stereo partly specified) | SF-295 CNS | > | 375 |
| NS(=O)(=O)c1ccc(CNc2nc(-c3cccs3)nc3ccc(I)cc23)cc1 | SF-295 CNS | = | 38 |
| c1ccc(/N=N/Nc2ccc(-c3nc4ccccc4[nH]3)cc2)nc1 | SF-295 CNS | = | 35.9 |
| S=C(S)N1CCN(c2ccc(Cl)c(Cl)c2)CC1 | SF-295 CNS | > | 100 |
| COC1=CC(c2ccc[nH]2)=N/C1=C\c1ccc[nH]1 | SF-295 CNS | = | 3.17 |
| CCN(CC)CCCNc1nc2ccccc2c2[nH]c3ccc(OC)cc3c12 | SF-295 CNS | = | 2.39 |
| CCOC(=O)c1c(-c2ccc(OC)cc2)c(C#N)c(=S)n(C2OC(CO)C(O)C(O)C2O)c1-c1ccccc1 (stereo unspecified) | SF-295 CNS | > | 100 |
| O=C(OC(=C(c1ccccc1)c1ccccc1)N1CCCC1=S)C(c1ccccc1)c1ccccc1 | SF-295 CNS | > | 10 |
| Clc1c(Cl)c2c(Cl)c(Cl)c1C[P+](c1ccccc1)(c1ccccc1)CC[P+](c1ccccc1)(c1ccccc1)Cc1c(Cl)c(Cl)c(c(Cl)c1Cl)C[P+](c1ccccc1)(c1ccccc1)CC[P+](c1ccccc1)(c1ccccc1)C2 | SF-295 CNS | = | 12.6 |
| NS(=O)(=O)c1ccc(N2N=C3c4ccccc4CC3C2c2ccc(Cl)cc2)cc1 (stereo unspecified) | SF-295 CNS | = | 34.2 |
| C[C@H]1[C@H](C)CC[C@]2(C(=O)O)CC[C@]3(C)C(=CC[C@@H]4[C@@]5(C)C/C(=C/c6ccco6)C(=O)C(C)(C)[C@@H]5CC[C@]43C)[C@H]12 | SF-295 CNS | = | 15.5 |
| CCCCCCCC(=O)NC(C)(C)C(=O)NC(COC(C)(C)C)C(=O)NC(CC(C)C)C(=O)NC(C)(C)C(=O)NC(COC(C)(C)C)C(=O)NC(COC(C)(C)C)C(=O)NC(CC(C)C)C(=O)NC(C)(C)C(=O)NC(COC(C)(C)C)C(=O)NC(C(=O)NC(CC(C)C)C(=O)OC)C(C)CC (stereo unspecified) (Octanoyl-[Aib]S(tBu)L[Aib]S(tBu)S(tBu)L[Aib]S(tBu)IL-OMe; configuration not given here) | SF-295 CNS | > | 25 |
| OC1CN2CCS[C@H]2C(O)C1O (stereo partly specified) | SF-295 CNS | > | 100 |

Data credit: PubChem BioAssay (NCI)
